- System name: PSMA (Homo sapiens, UniProt Q04609)
- Sequence (Q04609 whole entry): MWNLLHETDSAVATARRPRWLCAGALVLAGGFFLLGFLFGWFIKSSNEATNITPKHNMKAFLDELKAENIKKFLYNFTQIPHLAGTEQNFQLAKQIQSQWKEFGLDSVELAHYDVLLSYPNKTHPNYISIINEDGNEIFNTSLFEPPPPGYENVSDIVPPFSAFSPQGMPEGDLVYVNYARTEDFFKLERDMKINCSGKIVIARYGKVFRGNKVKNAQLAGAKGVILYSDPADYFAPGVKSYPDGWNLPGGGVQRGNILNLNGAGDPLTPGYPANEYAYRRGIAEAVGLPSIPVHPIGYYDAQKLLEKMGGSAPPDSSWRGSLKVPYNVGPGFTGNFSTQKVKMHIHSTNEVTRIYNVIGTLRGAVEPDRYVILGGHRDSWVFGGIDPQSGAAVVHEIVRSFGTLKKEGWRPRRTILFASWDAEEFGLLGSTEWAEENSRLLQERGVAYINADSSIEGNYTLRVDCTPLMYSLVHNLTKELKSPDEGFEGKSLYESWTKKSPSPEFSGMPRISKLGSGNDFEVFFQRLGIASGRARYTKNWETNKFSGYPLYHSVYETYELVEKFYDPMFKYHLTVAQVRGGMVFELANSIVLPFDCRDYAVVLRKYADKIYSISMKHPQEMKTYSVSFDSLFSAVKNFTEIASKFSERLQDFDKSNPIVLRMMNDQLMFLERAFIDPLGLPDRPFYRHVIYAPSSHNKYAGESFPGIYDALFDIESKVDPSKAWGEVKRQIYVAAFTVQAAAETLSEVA
- Assay: PSMA competitive binding, LNCaP cells with [68Ga]PSMA-11
- Parameters: LNCaP with 0.2 nM; endogenous in cells; host or cells: LNCaP cells (suspension)
- Reported conditions: n = 3; read-out: IC50 (LNCaP human PCa cells and [68Ga]PSMA-11)
Observation type: pIC50
API: returns pIC50 as number; meaning -log10 of concentration in mol/L.

// worked examples, pIC50 included
Molecule	Val
O=C(O)CC[C@H](NC(=O)N[C@@H](CCCCNC(=O)[C@H](Cc1ccc2ccccc2c1)NC(=O)[C@H]1CC[C@H](CNC(=O)CN2CCN(CC(=O)O)CCN(CC(=O)O)CCN(CC(=O)O)CC2)CC1)C(=O)O)C(=O)O [PSMA-617, reference compound]	7.95
O=C(O)CC[C@H](NC(=O)N[C@@H](CCCCNC(=O)[C@H](Cc1ccccc1)NC(=O)COc1ccc(C[C@H](NC(=O)CNC(=O)CCC(C(=O)O)N2CCN(CC(=O)O)CCN(CC(=O)O)CCN(CC(=O)O)CC2)C(=O)NCC(=O)NC(P(=O)(O)O)P(=O)(O)O)cc1)C(=O)O)C(=O)O (stereo partly shown) [Compound 51]	7.97

Query block: Give its pIC50 value. Item: O=C(O)CCC(C(=O)O)N1CCN(CC(=O)O)CCN(C(CCC(=O)NCC(=O)N[C@@H](Cc2ccc(OCC(=O)N[C@@H](Cc3ccccc3)C(=O)NCCCC[C@H](NC(=O)N[C@@H](CCC(=O)O)C(=O)O)C(=O)O)cc2)C(=O)O)C(=O)O)CCN(CC(=O)O)CC1 (stereo partly shown) [Compound 4]
Result block: 7.54

Query block: Give its pIC50 value. Item: O=C(O)CC[C@H](NC(=O)N[C@@H](CCCCNC(=O)[C@H](Cc1ccccc1)NC(=O)COc1ccc(C[C@H](NC(=O)CNC(=O)CCC(C(=O)O)N2CCN(CC(=O)O)CCN(C(CCC(=O)NCCOCCOCCNC(=O)CCCc3ccc(I)cc3)C(=O)O)CCN(CC(=O)O)CC2)C(=O)O)cc1)C(=O)O)C(=O)O (stereo partly shown) [Compound 7]
Result block: 7.81

====

PIP/blood values for the compounds below.
- Tested on: PIP tumor and PC3 tumor
- Assay: Biodistribution of 125I labeled compounds 17, 18, 26 and 27 in tumor bearing nude mice
- Format: in vivo
- Reported conditions: 1 h, ratio
Returns: the value as a bare number; no unit string appended.

Compound	PIP/blood
O=C(O)CC[C@H](NC(=O)N[C@@H](CCCCNC(=O)[C@H](Cc1ccccc1)NC(=O)COc1ccc(C[C@H](NC(=O)[C@H](CCC(=O)O)NC(=O)c2ccc([125I])cc2)C(=O)O)cc1)C(=O)O)C(=O)O [[^125I]26]	66.04
O=C(O)CC[C@H](NC(=O)N[C@@H](CCCCNC(=O)[C@H](Cc1ccccc1)NC(=O)[C@H](CCC(=O)O)NC(=O)[C@H](CCC(=O)O)NC(=O)c1ccc([125I])cc1)C(=O)O)C(=O)O [[^125I]18]	21.30

Query block: Give its PIP/blood value. Item: O=C(O)CC[C@H](NC(=O)N[C@@H](CCCCNC(=O)[C@H](Cc1ccccc1)NC(=O)COc1ccc(C[C@H](NC(=O)[C@H](CCC(=O)O)NC(=O)[C@H](CCC(=O)O)NC(=O)c2ccc([125I])cc2)C(=O)O)cc1)C(=O)O)C(=O)O [[^125I]27]
Result block: 36.90

Query block: Give its PIP/blood value. Item: O=C(O)CC[C@H](NC(=O)N[C@@H](CCCCNC(=O)[C@H](Cc1ccccc1)NC(=O)[C@H](CCC(=O)O)NC(=O)c1ccc([125I])cc1)C(=O)O)C(=O)O [[^125I]17]
Result block: 23.69
